Data origin: patent US20140161799A1

# STUDY TARGET: T1, mouse CD47 (mouse, UniProt Q61735 19-303)
# T1 construct: whole, on cells; also called CD47 on mouse red blood cells
# T1 sequence (looked up): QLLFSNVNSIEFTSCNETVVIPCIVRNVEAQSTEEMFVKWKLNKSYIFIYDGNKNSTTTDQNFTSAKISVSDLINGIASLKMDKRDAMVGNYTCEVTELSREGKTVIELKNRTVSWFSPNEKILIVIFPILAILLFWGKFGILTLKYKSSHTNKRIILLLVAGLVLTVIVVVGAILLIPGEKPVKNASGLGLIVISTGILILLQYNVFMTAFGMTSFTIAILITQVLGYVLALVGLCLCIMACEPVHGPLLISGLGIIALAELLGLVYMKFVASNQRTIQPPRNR
# TEST DETAILS: flow cytometry on RBCs, antibody 10 ng/ml
Listing: mean fluorescence relative to chimeric antibody of selected binders

Known results for binders:
pVxK7b-037-hum09-LC/pVxK7b-037-hum09-HC (antibody, human IgG1, V domains shown, Full-length human IgG1/kappa in CHO supernatant; Variable entries end within framework 4 (...FGQG / ...WGQG); also called Clone 9) VH: QVQLQESGPGLVKPSQTLSLTCTVSGYTFTNYYVFWVRQARGQRLEWIGDINPVNGDTNFNEKFKNRLTISKDTSKNQVVLTMTNMDPVDTATYYCARGGYTMDYWGQG VL: DVVMTQSPLSLPVTLGQPASISCRSSQSLVHSNGNTYLHWYQQKPGKAPKLLIYKVSYRFSGVPDRFSGSGSGTDFTLKISRVEAEDVGVYYCSQNTHVPRTFGQG
1.4 fold of chimera
pVxK7b-037-hum11-LC/pVxK7b-037-hum11-HC (antibody, human IgG1, V domains shown, Full-length human IgG1/kappa in CHO supernatant; Variable entries end within framework 4 (...FGQG / ...WGQG); also called Clone 11) VH: QVQLQESGPGLVKPGATVKISCKVSGYTFTNYYVFWVRQARGQRLEWIGDINPVNGDTNFNEKFKNRVTITADKSTSTAYMELSSLRSEDTAVYYCARGGYTMDYWGQG VL: EIVLTQSPATLSVSPGERATLSCRSSQSLVHSNGNTYLHWYQQKPGQAPRLLIYKVSYRFSGVPSRFSGSGSGTDFTFTISSLEAEDAATYYCSQNTHVPRTFGQG
0.7 fold of chimera

The reported mean fluorescence relative to chimeric antibody of the binder pVxK7b-037-hum03-LC/pVxK7b-037-hum03-HC (antibody, human IgG1, V domains shown, Full-length human IgG1/kappa in CHO supernatant; Variable entries end within framework 4 (...FGQG / ...WGQG); also called Clone 3) VH: EVQLVQSGAEVKKPGESLRISCKGSGYTFTNYYVFWVRQARGQRLEWIGDINPVNGDTNFNEKFKNRVTITADKSTSTAYMELSSLRSEDTAVYYCARGGYTMDYWGQG VL: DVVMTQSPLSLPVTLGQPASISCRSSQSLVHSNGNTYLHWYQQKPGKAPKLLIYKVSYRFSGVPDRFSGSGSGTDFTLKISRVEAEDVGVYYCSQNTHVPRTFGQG was 0.9 fold of chimera
